target: CK1δ (Homo sapiens (Human), UniProt P48730)
Sequence (P48730 whole entry): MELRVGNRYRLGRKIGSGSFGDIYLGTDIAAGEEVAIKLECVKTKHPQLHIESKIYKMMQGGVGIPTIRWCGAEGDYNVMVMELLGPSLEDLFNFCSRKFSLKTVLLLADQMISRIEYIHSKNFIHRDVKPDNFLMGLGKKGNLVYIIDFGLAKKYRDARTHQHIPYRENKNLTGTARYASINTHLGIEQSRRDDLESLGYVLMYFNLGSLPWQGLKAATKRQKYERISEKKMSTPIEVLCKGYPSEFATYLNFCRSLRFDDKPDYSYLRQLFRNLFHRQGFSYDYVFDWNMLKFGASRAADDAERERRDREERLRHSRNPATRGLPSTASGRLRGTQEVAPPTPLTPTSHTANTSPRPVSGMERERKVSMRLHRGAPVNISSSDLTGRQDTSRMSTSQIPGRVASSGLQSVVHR
measured.metric: IC50 (pM)

P: Cn1nc(-c2ccc(F)cc2)c(-c2ccc3nc(NC(=O)c4ccncc4)cn3n2)c1N1CCNCC1
Q: Cn1nc(-c2ccc(F)cc2)c(-c2ccc3nc(NC(=O)c4ccnc(F)c4)cn3n2)c1C1CCN(CCC#N)CC1
R: Cn1cc(-c2ccc3nc(NC(=O)C4CCCCCC4)cn3n2)c(-c2ccc(F)cc2)n1
Q: Arrange the 3 entries by IC50 so the values rise. Answer by listing the labels in the order asked for.
A: Q, P, R

----------
target: CK1δ (Homo sapiens (Human)); experiment: CK1δ kinase assay (Caliper LabChip, fluoresceinated peptide substrate); format: biochemical; settings: 200 pM CK1δ, 50 μM ATP, 1.5 μM peptide substrate, 22 hours room temperature
pIC50: −log10 of the molar value. Counter-ions that a name gives are not always drawn.
measured.metric: pIC50

Recorded results for 3 molecules are shown here.
molecule	pIC50
Cn1cc(-c2ccc3nc(NC(=O)c4ncccc4Cl)cn3n2)c(-c2ccc(F)cc2)n1	8.14
Cn1nc(-c2ccc(F)cc2)c(-c2ccc3nc(NC(=O)c4ccnc(N)c4)cn3n2)c1N1CCN(Cc2ccon2)CC1	9.52
Cn1nc(-c2ccc(F)cc2)c(-c2ccc3nc(NC(=O)c4ccnc(F)c4)cn3n2)c1C1CCOCC1	9.70

a: Cn1cc(-c2ccc3nc(NC(=O)c4ccccc4)cn3n2)c(-c2ccc(F)cc2)n1
b: Cn1nc(-c2ccc(F)cc2)c(-c2ccc3nc(NC(=O)c4ccncc4)cn3n2)c1N1CCN(Cc2ccon2)CC1
c: Cc1c(NC(=O)c2ccccc2)nc2ccc(-c3cn(C)nc3-c3ccc(F)cc3)nn12 [Compound 195, TFA]
Q: List these items ordered by pIC50, big to small. Answer by listing the labels in the order asked for.
A: b, a, c

1: Cn1cc(-c2ccc3nc(NC(=O)c4ccno4)cn3n2)c(-c2ccc(F)cc2)n1
2: Cn1cc(-c2ccc3nc(NC(=O)C45CC6CC(C)(CC(C)(C6)C4)C5)cn3n2)c(-c2ccc(F)cc2)n1
Q: Kindly compare 1 with 2 and tell me which has the lower pIC50 figure. Identify your pick by its label.
A: 2

The measured values listed here are drawn from patent US9475817B2.
